system: Plasmodium berghei; test: Screen against P. berghei liver stage (PbLuc), transformed with Luciferase, at 2uM; type: functional, HepG2; settings: tested at 2 uM
Screen size: about 68,000 compounds; about 2,700 (4%) showed an effect of 50% or more. Shown is part of a subset that was picked to be rich in strong results.
INHIBITION: recorded values
Write the numeric value and append its unit.

CCn1cnnc1CNC(=O)N1CCC(C)CC1 :: 56.4%

Requested read-out: INHIBITION. Entry: Cn1cc(Cl)c(C(=O)N2CCCN(C3Cc4ccccc4C3)CC2)n1
-18.65%

Requested read-out: INHIBITION. Entry: CCCc1nnc(C(=O)N(C)Cc2cnc3ccccn23)o1
-2.89%

Requested read-out: INHIBITION. Entry: CCN(CC)C1CCN(C(=O)NCc2nncn2CC)CC1
55.52%

Requested read-out: INHIBITION. Entry: CC(C)(C(=O)NCC(=O)NCc1ccccc1)c1ccccc1F
-3.22%

Requested read-out: INHIBITION. Entry: CC(=O)N1CCCN(C(=O)c2cnn(-c3ccccc3Cl)c2)CC1
82.5%

Requested read-out: INHIBITION. Entry: CNc1cncc(C2CCN(C(=O)c3coc(C)n3)CC2)n1
-16.56%

Requested read-out: INHIBITION. Entry: Clc1cccc(C(CNCc2ccccn2)N2CCOCC2)c1 (centres undefined)
20.8%

Requested read-out: INHIBITION. Entry: CCn1cc(CNCC(c2ccc(C)s2)N2CCOCC2)cn1 (centres undefined)
8.33%

Requested read-out: INHIBITION. Entry: COCc1nnc(C(=O)N(C)Cc2ccc(OC)cc2)o1
14.55%

Requested read-out: INHIBITION. Entry: CN(C(=O)C1CCN(Cc2cnc3ccccn23)CC1)c1ccccc1
4.07%

Requested read-out: INHIBITION. Entry: CCn1cnnc1CNC(=O)N1CCN(c2ccccc2O)CC1
-3.06%

Requested read-out: INHIBITION. Entry: C=c1ccoc1=C1NN=C(CNCCn2cccn2)O1
58.49%

Requested read-out: INHIBITION. Entry: COc1cccc([C@H]2CN(C(C)=O)[C@@H]3CCN(Cc4ccsc4)C[C@H]23)c1
-24.17%

Requested read-out: INHIBITION. Entry: C=c1ccoc1=C1NN=C(CNCCn2cc(C)cn2)O1
32.63%

Requested read-out: INHIBITION. Entry: Cn1cc(C(=O)N2CCCN(C3Cc4ccccc4C3)CC2)cn1
55.66%

Requested read-out: INHIBITION. Entry: CCN(Cc1nc2c(cnn2C)c(=O)[nH]1)c1ccccc1C
-16.3%

Requested read-out: INHIBITION. Entry: Cc1nn(CCC#N)c(C)c1CCC(=O)N(C(C)C)C1CC1
52.6%

Requested read-out: INHIBITION. Entry: COC(C)C(=O)NS(=O)(=O)c1ccc(F)c(C(F)(F)F)c1 (centres undefined)
35.7%

----------
tested on: Plasmodium berghei; test: Screen against P. berghei liver stage (PbLuc), transformed with Luciferase, at 2uM; assay type: functional, HepG2; details: tested at 2 uM
Hit rate of the full screen: of about 68,000 compounds, about 2,700 (4%) showed an effect of 50% or more. The full list was thinned out, with strong results kept by preference.
# label = 1.0 if INHIBITION >= 20% else 0.0

Worked examples follow.
O=C(Nc1cnccn1)[C@@H]1COC[C@H]2CN(C3CCCC3)C[C@H]21 :: 0.0
O=C(c1cnc(-c2ncccn2)s1)N1CCCC(n2cccn2)C1 (stereo not given) :: 0.0
Cc1nc(N2CCCCC2)ncc1-c1cc(=O)[nH]c(N2CCCC2)n1 :: 0.0
O=C(CNC(=O)C1CCCC1)NCC(O)c1ccc2ccccc2c1 (stereo not given) :: 0.0
CCN1CCC(CC(=O)NCC(O)c2cccc(OC)c2)CC1 (stereo not given) :: 1.0

Can Cc1c(C(=O)NC(C)C)nnn1-c1cccc(C(F)(F)F)c1 be said to have INHIBITION at or above 20%?
0.0

Can O=C(c1cnc(-c2ccccn2)s1)N1CCCC(n2cccn2)C1 (stereo not given) be said to have INHIBITION at or above 20%?
1.0

Can Cc1nc(-c2ccc(S(=O)(=O)N3CCC4(CC3)OCCO4)cc2)co1 be said to have INHIBITION at or above 20%?
0.0

Can COc1cc(N2CCN(Cc3ccsc3)C(CCO)C2)nc(N)n1 (stereo not given) be said to have INHIBITION at or above 20%?
1.0

Can CC(C)NC(=O)c1nnn(-c2cccc(C(F)(F)F)c2)c1N be said to have INHIBITION at or above 20%?
1.0
